This collection of values is drawn from paper PMC5625163.

METHOD: Standard MTT cell viability assay in primary rat hepatocytes
Format: cell-based
PARTICULARS: male, Sprague-Dawley
Counter-ions that a name gives are not always drawn.
REPORTED_METRIC: CC50 at 72 h (nM)

{"columns": ["COMPOUND", "REPORTED_METRIC", "MEASURED"],
 "data": [
  ["COc1ccc(C[C@H](N)C(=O)N[C@H]2[C@@H](O)[C@H](n3cnc4c(N(C)C)ncnc43)O[C@@H]2CO)cc1 [puromycin, puromycin dihydrochloride]", "CC50 at 72 h", 1600]
]}

* * *

METHOD: Standard MTT cell viability assay in HepG2 cells
Format: cell-based, human
PARTICULARS: human
Experimental: Standard MTT assays were performed on HepG2 and PRH cells to measure cell viability. […] A quantity of 20 μL of 5 mg/mL […] in HBSS was added to each well and incubated for 2 h. A quantity of 100 μL lysis buffer (50% v/v dimethylformahyde and 20% v/v sodium dodecyl sulphate) was added to each well and the plate was incubated overnight at 37°C. The absorbance was quantified at 570 nm by a Tecan GENios micoplate reader (Germany). […]
Counter-ions that a name gives are not always drawn.
REPORTED_METRIC: CC50 at 72 h (nM)

{"columns": ["MOLECULE", "REPORTED_METRIC", "MEASURED"],
 "data": [
  ["COc1ccc(C[C@H](N)C(=O)N[C@H]2[C@@H](O)[C@H](n3cnc4c(N(C)C)ncnc43)O[C@@H]2CO)cc1 [puromycin, puromycin dihydrochloride]", "CC50 at 72 h", 1300]
]}

* * *

Overview of recorded CC50 at 72 h for various molecules
METHOD: Standard MTT cell viability assay in HepG2 cells
Type: cell-based, human
PARTICULARS: human; HepG2 cells, 72 h, single inhibitor, MTT, mean ± SD; read-out: CC50 cytotoxicity (50% cell viability)
Where a name gives a salt, the structure may show the parent alone. Starred links: 1 amine or outer side, 2 acyl side, 3 side chain; linkers in the order of their positions; H or OH if unused. Positions of bridges follow the written chain, without caps; N, C: chain ends. Non-standard residues stand in square brackets, D forms with d. Residues, ends and D or L forms follow the SMILES beside them. Chains are numbered I, II in the order given. Actinocin(9to1) = Cc1c2oc3c(C)ccc(C(=O)[*:1])c3nc-2c(C(=O)[*:2])c(N)c1=O; NMeV = CN[C@H](C(=O)O)C(C)C; Sar = CNCC(=O)O
REPORTED_METRIC: CC50 at 72 h

{"columns": ["MOLECULE", "MEASURED"],
 "data": [
  ["CC[C@H]1CN2CCc3cc(OC)c(OC)cc3[C@@H]2C[C@@H]1C[C@H]1NCCc2cc(OC)c(OC)cc21 [emetine, emetine dihydrochloride hydrate]", "81 nM"],
  ["Cc1c2oc3c(C)ccc(C(=O)N[C@@H]4C(=O)N[C@H](C(C)C)C(=O)N5CCC[C@H]5C(=O)N(C)CC(=O)N(C)[C@@H](C(C)C)C(=O)O[C@@H]4C)c3nc-2c(C(=O)N[C@@H]2C(=O)N[C@H](C(C)C)C(=O)N3CCC[C@H]3C(=O)N(C)CC(=O)N(C)[C@@H](C(C)C)C(=O)O[C@@H]2C)c(N)c1=O [actinomycin D] (I: T[dV]P[Sar][NMeV] / II: T[dV]P[Sar][NMeV]; ester I:1-I:C, II:1-II:C; linker I:N-II:N via Actinocin(9to1))", "6.2 nM"],
  ["C[C@@H]1C[C@@H]([C@H](O)CC2CC(=O)NC(=O)C2)C(=O)[C@@H](C)C1 [cycloheximide]", "570 nM"]
]}
